test: Solubility of Tafamidis crystalline forms in water at different pH; type: physicochemical; settings: pH 5, aqueous buffer

[
  {
    "Compound": "O=C(O)c1ccc2nc(-c3cc(Cl)cc(Cl)c3)oc2c1 [Form HN3]",
    "Reading unit": "µg/mL",
    "solubility": 3
  }
]

###

experiment: Solubility of Tafamidis crystalline forms in water at different pH; format: physicochemical; settings: pH 4, aqueous buffer

[
  {
    "Compound": "O=C(O)c1ccc2nc(-c3cc(Cl)cc(Cl)c3)oc2c1 [Form HN3]",
    "solubility / µg/mL": 3
  }
]

The measured values listed here are drawn from patent US20240294479A1.
